Reference source for all entries: patent US20100129369A1

biological target: human c-Met (human, UniProt P08581 25-1390); assay: cell-based or functional assay
Sequence (P08581 25-1390): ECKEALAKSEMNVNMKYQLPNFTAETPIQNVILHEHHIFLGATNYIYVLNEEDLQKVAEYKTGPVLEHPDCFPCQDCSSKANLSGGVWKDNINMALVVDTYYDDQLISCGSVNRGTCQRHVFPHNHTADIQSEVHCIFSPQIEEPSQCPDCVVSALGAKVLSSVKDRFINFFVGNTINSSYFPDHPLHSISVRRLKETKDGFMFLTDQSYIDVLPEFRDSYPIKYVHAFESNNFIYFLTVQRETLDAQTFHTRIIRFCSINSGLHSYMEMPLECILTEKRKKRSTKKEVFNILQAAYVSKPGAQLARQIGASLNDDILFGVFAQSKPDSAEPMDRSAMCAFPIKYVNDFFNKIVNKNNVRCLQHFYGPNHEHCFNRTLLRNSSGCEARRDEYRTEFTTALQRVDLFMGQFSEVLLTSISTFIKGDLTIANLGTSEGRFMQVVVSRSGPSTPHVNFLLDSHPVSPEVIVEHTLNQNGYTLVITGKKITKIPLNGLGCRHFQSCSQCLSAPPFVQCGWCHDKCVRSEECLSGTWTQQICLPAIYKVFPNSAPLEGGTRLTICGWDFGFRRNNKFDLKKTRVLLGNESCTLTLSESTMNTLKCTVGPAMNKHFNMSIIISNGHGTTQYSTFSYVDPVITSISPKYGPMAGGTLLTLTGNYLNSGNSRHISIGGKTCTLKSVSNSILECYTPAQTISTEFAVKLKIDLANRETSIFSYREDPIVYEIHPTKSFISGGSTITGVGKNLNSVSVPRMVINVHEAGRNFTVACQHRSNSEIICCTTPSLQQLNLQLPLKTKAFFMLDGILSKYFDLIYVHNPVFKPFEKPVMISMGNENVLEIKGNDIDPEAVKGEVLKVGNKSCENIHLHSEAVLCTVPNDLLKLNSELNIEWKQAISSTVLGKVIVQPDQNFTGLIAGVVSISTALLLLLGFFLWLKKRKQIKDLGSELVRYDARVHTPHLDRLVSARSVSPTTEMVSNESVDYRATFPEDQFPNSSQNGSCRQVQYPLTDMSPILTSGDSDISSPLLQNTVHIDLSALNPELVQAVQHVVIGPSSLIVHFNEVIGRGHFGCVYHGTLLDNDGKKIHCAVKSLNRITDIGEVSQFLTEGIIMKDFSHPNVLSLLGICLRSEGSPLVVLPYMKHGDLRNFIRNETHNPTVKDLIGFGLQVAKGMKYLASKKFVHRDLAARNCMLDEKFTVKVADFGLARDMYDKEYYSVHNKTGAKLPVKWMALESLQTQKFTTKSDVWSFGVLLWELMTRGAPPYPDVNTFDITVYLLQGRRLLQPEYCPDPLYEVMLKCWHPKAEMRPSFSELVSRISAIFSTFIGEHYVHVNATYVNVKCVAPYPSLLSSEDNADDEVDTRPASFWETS
// values below are reported Mean Fluorescence (c-Met left on the surface of MKN45 cells, FACS), Ab 5.00 ug/mL
quantity-kind: Mean Fluorescence (c-Met left on the surface of MKN45 cells, FACS), Ab 5.00 ug/mL

>  <binder>
C8-co-16 (antibody, human IgG2, kappa, V domains shown, Named IgG4 kappa; also called C8-co-16 IgG4) VH: QVQLVQSGAEVKKPGASVKVSCKASGYTFTDYYMHWVRQAPGQGLEWMGRVNPYRGSTTYNQKFEGRVTMTTDTSTSTAYMELRSLRSDDTAVYYCARANILDYWGQGTTVTVSS VL: DIQMTQSPSSLSASVGDRVTITCSVSSSVRSIYLHWYQQKPGKAPKLLIYSTSNLASGVPSRFSGSGSGTDFTLTISSLQPEDFATYYCQVYRGYPLTFGGGTKVEIKR

>  <assay-result>
56.2

$$$$
>  <binder>
D11-C27G3 (antibody, human IgG2, kappa, V domains shown, Human engineered IgG2 kappa c-Met antibody; also called D11-27G3; D11-C27G3 IgG2) VH: QVQLVQSGAEVKKPGSSVKVSCKASGYTFTSRYIHWVRQAPGQGLEWMGWIYPVTGDTYYREPFKGRVTITADKSTSTAYMELSSLRSEDTAVYYCARGYGAFYYWGQGTLVTVSS VL: EIVLTQSPGTLSLSPGERATLSCSVSSSISSTNLHWYQQKPGQAPRLLIYGTSRLRSGIPDRFSGSGSGTDFTLTISRLEPEDFAVYYCQQWSSYPYSFGQGTKLEIKR

>  <assay-result>
51.1

$$$$
>  <binder>
C8-6 (antibody, human IgG2, kappa, V domains shown, Named IgG4 kappa; also called C8-6 IgG4) VH: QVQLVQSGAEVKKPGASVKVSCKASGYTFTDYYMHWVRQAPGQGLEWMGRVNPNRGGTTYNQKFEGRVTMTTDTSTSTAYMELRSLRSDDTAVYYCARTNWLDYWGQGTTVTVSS VL: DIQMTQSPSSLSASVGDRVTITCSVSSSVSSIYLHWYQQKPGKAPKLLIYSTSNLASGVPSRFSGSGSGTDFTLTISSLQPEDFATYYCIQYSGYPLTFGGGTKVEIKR

>  <assay-result>
67.9

$$$$
>  <binder>
D11-S17Y (antibody, human IgG2, kappa, V domains shown, Human engineered IgG2 kappa c-Met antibody; also called D11-S17Y IgG2) VH: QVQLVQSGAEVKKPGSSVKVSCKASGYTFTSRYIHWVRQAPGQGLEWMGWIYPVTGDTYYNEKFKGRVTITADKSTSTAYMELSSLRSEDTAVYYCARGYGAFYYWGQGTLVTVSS VL: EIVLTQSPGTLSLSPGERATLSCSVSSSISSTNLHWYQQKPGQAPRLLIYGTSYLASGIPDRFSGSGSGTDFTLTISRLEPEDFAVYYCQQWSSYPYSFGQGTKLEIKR

>  <assay-result>
56.4

$$$$
